protocol_text: Solubility estimated by solvent aliquot addition at ambient temperature
Format: physicochemical
measurement_parameters: organic solvent or mixture, thermodynamic from solid, 10:90 chloroform/IPA v/v
readout_name: solubility (mg/mL)
One number for each entry, in mg/mL.

**Query** Item Cc1cc(Nc2ncnn3ccc(C4CCN(C(=O)/C=C/CN(C)C)CC4)c23)ccc1Oc1ccn2ncnc2c1 [Compound 1 Form A] : provide solubility
**Result** 27

====

protocol_text: Solubility estimated by solvent aliquot addition at ambient temperature
Type: physicochemical
measurement_parameters: organic solvent or mixture, thermodynamic from solid, 50:50 EtOAc/MIBK v/v
readout_name: solubility (µg/mL)
Numbers only, in µg/mL.

**Query** Item Cc1cc(Nc2ncnn3ccc(C4CCN(C(=O)/C=C/CN(C)C)CC4)c23)ccc1Oc1ccn2ncnc2c1 [Compound 1 Form A] : provide solubility
**Result** 4000

====

protocol_text: Solubility estimated by solvent aliquot addition at ambient temperature
Type: physicochemical
measurement_parameters: organic solvent or mixture, thermodynamic from solid, 70:30 THF/heptane v/v
readout_name: solubility (µg/mL)
Answers are plain numbers, in µg/mL.

**Query** Item Cc1cc(Nc2ncnn3ccc(C4CCN(C(=O)/C=C/CN(C)C)CC4)c23)ccc1Oc1ccn2ncnc2c1 [Compound 1 Form A] : provide solubility
**Result** 10000

====

protocol_text: Solubility estimated by solvent aliquot addition at ambient temperature
Format: physicochemical
measurement_parameters: organic solvent or mixture, thermodynamic from solid, MTBE
readout_name: solubility

**Query** Item Cc1cc(Nc2ncnn3ccc(C4CCN(C(=O)/C=C/CN(C)C)CC4)c23)ccc1Oc1ccn2ncnc2c1 [Compound 1 Form A] : provide solubility
**Result** < 1000 µg/mL

====

protocol_text: Solubility estimated by solvent aliquot addition at ambient temperature
Format: physicochemical
measurement_parameters: organic solvent or mixture, thermodynamic from solid, chloroform
readout_name: solubility

**Query** Item Cc1cc(Nc2ncnn3ccc(C4CCN(C(=O)/C=C/CN(C)C)CC4)c23)ccc1Oc1ccn2ncnc2c1 [Compound 1 Form A] : provide solubility
**Result** > 100 mg/mL

====

protocol_text: Solubility estimated by solvent aliquot addition at ambient temperature
Assay type: physicochemical
measurement_parameters: aqueous with cosolvent or surfactant or cyclodextrin, thermodynamic from solid, 50:50 THF/water v/v
readout_name: solubility

**Query** Item Cc1cc(Nc2ncnn3ccc(C4CCN(C(=O)/C=C/CN(C)C)CC4)c23)ccc1Oc1ccn2ncnc2c1 [Compound 1 Form A] : provide solubility
**Result** > 31 mg/mL

====

protocol_text: Solubility estimated by solvent aliquot addition at ambient temperature
Type: physicochemical
measurement_parameters: organic solvent or mixture, thermodynamic from solid, 30:70 DCM/toluene v/v
readout_name: solubility (µg/mL)
Numbers only, in µg/mL.

**Query** Item Cc1cc(Nc2ncnn3ccc(C4CCN(C(=O)/C=C/CN(C)C)CC4)c23)ccc1Oc1ccn2ncnc2c1 [Compound 1 Form A] : provide solubility
**Result** 9000

====

protocol_text: Solubility estimated by solvent aliquot addition at ambient temperature
Type: physicochemical
measurement_parameters: aqueous with cosolvent or surfactant or cyclodextrin, thermodynamic from solid, 50:50 acetone/water v/v
readout_name: solubility (mg/mL)
Give bare numbers, in mg/mL.

**Query** Item Cc1cc(Nc2ncnn3ccc(C4CCN(C(=O)/C=C/CN(C)C)CC4)c23)ccc1Oc1ccn2ncnc2c1 [Compound 1 Form A] : provide solubility
**Result** 24

====

protocol_text: Solubility estimated by solvent aliquot addition at ambient temperature
Assay type: physicochemical
measurement_parameters: organic solvent or mixture, thermodynamic from solid, THF
readout_name: solubility

**Query** Item Cc1cc(Nc2ncnn3ccc(C4CCN(C(=O)/C=C/CN(C)C)CC4)c23)ccc1Oc1ccn2ncnc2c1 [Compound 1 Form A] : provide solubility
**Result** 38 mg/mL
